The reported measurements were obtained from ChEMBL document CHEMBL2380285.

Assay: Half life in rat liver microsomes at 1 uM after 24 hrs by LC-MS/MS analysis
Conditions: liver microsomes
half-life at 24 h, 1 µM values, listed per item
Property: half-life at 24 h, 1 µM (h)

Cn1cc/c(=N\c2ccc(Oc3ccc(C(F)(F)F)cc3)cc2)c2ccc(Cl)cc21 : 4.1
CCn1cc/c(=N\c2ccc(-c3ccccc3)cc2)c2ccc(C(F)(F)F)cc21 : 4.2
CCn1cc/c(=N\c2ccc(-c3ccccc3)cc2)c2ccc(Cl)cc21 : 4

====

Assay: Binding affinity to hematin (unknown origin) by UV-visible titration analysis
Property: logKA

CCn1cc/c(=N\c2ccc(-c3ccccc3)cc2)c2ccc(Cl)cc21 : 5.6
CCn1cc/c(=N\c2ccc(Oc3ccc(OC(F)(F)F)cc3)cc2)c2ccc(Cl)cc21 : 4.9
CCn1cc/c(=N\c2ccc(Oc3ccccc3)cc2)c2ccc(Cl)cc21 : 5.4
CCn1cc/c(=N\c2ccc(Oc3cccc(OC(F)(F)F)c3)cc2)c2ccc(Cl)cc21 : 5.1
CCn1cc/c(=N\c2cccc(CCc3ccc(OC(F)(F)F)cc3)c2)c2ccc(C(F)(F)F)cc21 : 4.9
CCn1cc/c(=N\c2ccc(Cc3ccccc3)cc2)c2ccc(Cl)cc21 : 5
Cn1cc/c(=N\c2ccc(Oc3ccc(C(F)(F)F)cc3)cc2)c2ccc(Cl)cc21 : 4.9

====

CC50 at 48 h values, listed per item
Test: Cytotoxicity against human HepG2 cells after 48 hrs by Alamar Blue assay
Type: cell-based
Property: CC50 at 48 h (µM)

CCn1cc/c(=N\c2ccc(-c3ccccc3)cc2)c2ccc(C(F)(F)F)cc21 : 7.04
CCn1cc/c(=N\c2ccc(Oc3ccc(OC(F)(F)F)cc3)cc2)c2ccc(Cl)cc21 : 3.53
CCn1cc/c(=N\c2ccc(Oc3ccc(Cl)cc3)cc2)c2ccc(Cl)cc21 : 2.69
CCn1cc/c(=N\c2ccc(Oc3cccc(OC(F)(F)F)c3)cc2)c2ccc(C(F)(F)F)cc21 : 12.9
CCn1cc/c(=N\c2ccc(Oc3cccc(OC(F)(F)F)c3)cc2)c2ccc(Cl)cc21 : 5.16
CCn1cc/c(=N\c2ccc(-c3ccccc3)cc2)c2ccc(Cl)cc21 : 4.61
CCn1cc/c(=N\c2ccc(Oc3ccccc3)cc2)c2ccc(Cl)cc21 : 5.33
CCn1cc/c(=N\c2cccc(CCc3ccc(OC(F)(F)F)cc3)c2)c2ccc(C(F)(F)F)cc21 : 6.09
